Reported protein stability index values are given for each entry in this list.
B1: FAM189A2 (parent)
chain: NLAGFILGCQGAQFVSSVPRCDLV

Variants of: B1
Assay: protein stability index of a GFP-peptide fusion (GPS, HEK-293T) (PSI 1-6); higher = more stable;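 also: lentivirally expressed fusions sorted by FACS into six bins by GFP to DsRed ratio, PSI derived from sequencing read proportions per bin multiplied by bin number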
Conditions: c terminus: a fixed tail appended

Solved cases (10 shown):
mutation=N1C reported=2.92
mutation=V18D reported=2.55
mutation=G8I reported=3.23
mutation=L2K reported=2.67
mutation=C21N reported=2.79
mutation=V18M reported=3.72
mutation=S17R reported=2.1
mutation=F5Q reported=2.27
mutation=S17W reported=3.85
mutation=G4C reported=3.26

Let's switch to this variant now.
Would you mind telling me what protein stability index value was observed for F5M ?
1.7
